Values from ChEMBL document CHEMBL3580620

# test: Cytotoxicity against mouse BV2 cells assessed as inhibition of cell viability by MTT assay
# Assay type: cell-based, BV-2
# condition: read-out: INH
endpointName: cytotoxicity

The reported value for COc1cc(/C=C/C(=O)O[C@H]2[C@H](O)[C@@H](CO)O[C@@]2(CO)O[C@H]2O[C@H](CO)[C@@H](O)[C@H](O)[C@H]2O)cc(OC)c1O in terms of cytotoxicity is 15%

---

# test: Antioxidant activity assessed as DPPH radical scavenging activity after 10 mins by spectrophotomteric analysis
# Assay type: physicochemical
IC50: recorded values
Please respond with the number in µg/mL and leave the unit unwritten.

Here's what some known entries look like.
COc1cc(/C=C/C(=O)OC[C@H]2O[C@H](O[C@]3(CO)O[C@H](CO)[C@@H](O)[C@@H]3OC(=O)/C=C/c3cc(OC)c(O)c(OC)c3)[C@H](O)[C@@H](O)[C@@H]2O)cc(OC)c1O	29.63
COc1cc(/C=C/C(=O)OC[C@H]2O[C@@](CO)(O[C@H]3O[C@H](COC(=O)/C=C/c4cc(OC)c(O)c(OC)c4)[C@@H](O)[C@H](O)[C@H]3O)[C@@H](OC(=O)/C=C/c3cc(OC)c(O)c(OC)c3)[C@@H]2O)cc(OC)c1O	44.59
COc1cc(/C=C/C(=O)O[C@H]2[C@H](OC(=O)/C=C/c3cc(OC)c(O)c(OC)c3)[C@@H](CO)O[C@@]2(CO)O[C@H]2O[C@H](COC(=O)/C=C/c3cc(OC)c(O)c(OC)c3)[C@@H](O)[C@H](O)[C@H]2O)ccc1O	23.05
COc1cc(/C=C/C(=O)O[C@H]2[C@H](O)[C@@H](CO)O[C@@]2(CO)O[C@H]2O[C@H](CO)[C@@H](O)[C@H](O)[C@H]2O)cc(OC)c1O	78.2

Here is another compound to look at.
The reported value for COc1cc(/C=C/C(=O)OC[C@H]2O[C@H](O[C@]3(CO)O[C@H](CO)[C@@H](O)[C@@H]3OC(=O)/C=C/c3ccc(O)c(OC)c3)[C@H](O)[C@@H](O)[C@@H]2O)ccc1O in terms of IC50 is 35.33
